Provenance of the data: the supplement of paper PMC10065799

# Test system: AncSZ
# protocol: phosphorylation enrichment, bacterial display (enrichment ratio); higher = better substrate or ligand; peptides without Tyr show the background
phosphorylation enrichment listing for selected sequences.

>  <inputSequence>
IAAEFYDNLPH [DEGS1_Y284_YF]

>  <targetOrSystem>
AncSZ

>  <phosphorylation enrichment>
0.894

$$$$
>  <inputSequence>
CRIELYRIVES [IGFBP1_Y181_V183I]

>  <targetOrSystem>
AncSZ

>  <phosphorylation enrichment>
1.21

$$$$
>  <inputSequence>
DTFDPYLDIAL [USP36_Y268_V271I_YF]

>  <targetOrSystem>
AncSZ

>  <phosphorylation enrichment>
1.25

$$$$
>  <inputSequence>
SETSRYLSDLF [KCNJ3_Y67]

>  <targetOrSystem>
AncSZ

>  <phosphorylation enrichment>
0.963

$$$$
>  <inputSequence>
TVFSDYLHPQF [CCPG1_Y569_YF]

>  <targetOrSystem>
AncSZ

>  <phosphorylation enrichment>
4.45

$$$$
>  <inputSequence>
IMNLLYHVVGW [GBA_Y412_T408M]

>  <targetOrSystem>
AncSZ

>  <phosphorylation enrichment>
0.963

$$$$
>  <inputSequence>
CGQDPYIRELG [UROS_Y19]

>  <targetOrSystem>
AncSZ

>  <phosphorylation enrichment>
1.05

$$$$
>  <inputSequence>
FETDFYQKGGK [INSR_Y1190_R1191Q_YF]

>  <targetOrSystem>
AncSZ

>  <phosphorylation enrichment>
0.633

$$$$
>  <inputSequence>
NQSVRYDSSLK [ABCC8_Y1353_L1349Q]

>  <targetOrSystem>
AncSZ

>  <phosphorylation enrichment>
0.523

$$$$
>  <inputSequence>
RVQKRYILDNV [RCN1_Y115_F117L]

>  <targetOrSystem>
AncSZ

>  <phosphorylation enrichment>
0.494

$$$$
>  <inputSequence>
NKVFTYIFIME [SCN4A_Y1074_D1069N]

>  <targetOrSystem>
AncSZ

>  <phosphorylation enrichment>
1.28

$$$$
>  <inputSequence>
DGYIDYAEFAK [MCFD2_Y138]

>  <targetOrSystem>
AncSZ

>  <phosphorylation enrichment>
1.13

$$$$
>  <inputSequence>
SFPPTYRYERG [INPPL1_Y661]

>  <targetOrSystem>
AncSZ

>  <phosphorylation enrichment>
0.73

$$$$
>  <inputSequence>
PGAPAYCVLME [MYO5A_Y1245_R1246C]

>  <targetOrSystem>
AncSZ

>  <phosphorylation enrichment>
1.64

$$$$
>  <inputSequence>
KVPELYEIHTE [BCR_Y554_K558T]

>  <targetOrSystem>
AncSZ

>  <phosphorylation enrichment>
1.19

$$$$
>  <inputSequence>
SGSIHYSRVPR [GLB1_Y57]

>  <targetOrSystem>
AncSZ

>  <phosphorylation enrichment>
0.629

$$$$
>  <inputSequence>
EKKKYYDAKIE [CASP5_Y104_T106A]

>  <targetOrSystem>
AncSZ

>  <phosphorylation enrichment>
0.777

$$$$
>  <inputSequence>
AEVDTYCRHNF [HLA-DRB1_Y107_A103E_YF]

>  <targetOrSystem>
AncSZ

>  <phosphorylation enrichment>
0.988

$$$$
>  <inputSequence>
RAMRRYLERGE [ERBB3_Y680]

>  <targetOrSystem>
AncSZ

>  <phosphorylation enrichment>
0.722

$$$$
>  <inputSequence>
KNDSIYVVKGN [KIT_Y823_N822I]

>  <targetOrSystem>
AncSZ

>  <phosphorylation enrichment>
0.574

$$$$
>  <inputSequence>
GIVEDYRPPLY [ACVRL1_Y421_F425L]

>  <targetOrSystem>
AncSZ

>  <phosphorylation enrichment>
0.727

$$$$
>  <inputSequence>
LNWIFYKDQTG [RS1_Y166_YF]

>  <targetOrSystem>
AncSZ

>  <phosphorylation enrichment>
0.977

$$$$
>  <inputSequence>
TEDELYQLSLQ [RASGRP2_Y378]

>  <targetOrSystem>
AncSZ

>  <phosphorylation enrichment>
1.9

$$$$
>  <inputSequence>
KALKQYRAGPS [DDX27_Y763]

>  <targetOrSystem>
AncSZ

>  <phosphorylation enrichment>
0.473

$$$$
>  <inputSequence>
SMAKYYASEIA [ACADSB_Y373]

>  <targetOrSystem>
AncSZ

>  <phosphorylation enrichment>
0.601

$$$$
>  <inputSequence>
INQGPYENHSV [ATP6V1B1_Y462_R465H]

>  <targetOrSystem>
AncSZ;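 also: frequency after pTyr selection over input frequency; kinase dosed for 20-30% of maximal phosphorylation in three min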

>  <phosphorylation enrichment>
0.646

$$$$
>  <inputSequence>
LTFDEYRNISQ [ANXA3_Y216]

>  <targetOrSystem>
AncSZ;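 also: frequency after pTyr selection over input frequency; kinase dosed for 20-30% of maximal phosphorylation in three min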

>  <phosphorylation enrichment>
1.82

$$$$
>  <inputSequence>
APAHKYHGGGG [HBD_Y146_L142P]

>  <targetOrSystem>
AncSZ;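 also: frequency after pTyr selection over input frequency; kinase dosed for 20-30% of maximal phosphorylation in three min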

>  <phosphorylation enrichment>
0.778

$$$$
>  <inputSequence>
SISLRYEGRVY [ABL1_Y167]

>  <targetOrSystem>
AncSZ;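 also: 11-residue human phosphosite peptides and single-mutation variants displayed on the E. coli surface, counted by deep sequencing, each peptide's frequency after selection divided by its frequency in the unselected input library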;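 also: frequency after pTyr selection over input frequency; kinase dosed for 20-30% of maximal phosphorylation in three min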

>  <phosphorylation enrichment>
1.07

$$$$
